Item-by-item account of MIC
Test system: Streptococcus pneumoniae
Test: Antimicrobial activity against tetracycline-resistant Streptococcus pneumoniae isolate 160 harboring tetM gene by CLSI dilution method
Format: functional

Compound	Target Or Test System	MIC / µg/mL
CCCNCc1ccc2cc3c(c(O)c2c1)C(=O)C1=C(O)[C@]2(O)C(=O)C(C(N)=O)=C(O)[C@@H](N(C)C)[C@@H]2C[C@@H]1C3	Streptococcus pneumoniae	0.25
CN(C)[C@@H]1C(O)=C(C(N)=O)C(=O)[C@@]2(O)C(O)=C3C(=O)c4c(cc5ccccc5c4O)C[C@H]3C[C@@H]12	Streptococcus pneumoniae	0.25
CN(C)[C@@H]1C(O)=C(C(N)=O)C(=O)[C@@]2(O)C(O)=C3C(=O)c4c(c(OCC(O)CO)c5ccc(CN6CCC6)cc5c4O)C[C@H]3C[C@@H]12 (stereo partly drawn)	Streptococcus pneumoniae	16

----------
Listed here: items and their measured MIC.
System: Enterococcus faecalis
Test: Antimicrobial activity against tetracycline-resistant Enterococcus faecalis isolate 159 harboring […] gene by CLSI dilution method
Assay type: functional
Parameter: MIC (µg/mL)

>>> print(df.to_string())
                            smiles_notation  test_value
0  CCNCc1ccc2c(F)c3c(c(O)c2c1)C(=O)C1=C(O)[C@]2(O)C(=O)C(C(N)=O)=C(O)[C@@H](N(C)C)[C@@H]2C[C@@H]1C3           2
1  CN(C)[C@@H]1C(O)=C(C(N)=O)C(=O)[C@@]2(O)C(O)=C3C(=O)c4c(c(F)c5ccc(CN6CC(F)C6)cc5c4O)C[C@H]3C[C@@H]12           1
2  CN(C)[C@@H]1C(O)=C(C(N)=O)C(=O)[C@@]2(O)C(O)=C3C(=O)c4c(c(F)c5ccc(CN6CCCC6)cc5c4O)C[C@H]3C[C@@H]12           1
3  CN(C)[C@@H]1C(O)=C(C(N)=O)C(=O)[C@@]2(O)C(O)=C3C(=O)c4c(cc5ccc(CN6CCCC6)cc5c4O)C[C@H]3C[C@@H]12           2
4  CN(C)c1ccc(-c2ccc3cc4c(c(O)c3c2)C(=O)C2=C(O)[C@]3(O)C(=O)C(C(N)=O)=C(O)[C@@H](N(C)C)[C@@H]3C[C@@H]2C4)cc1          16
5  COCCNCc1ccc2cc3c(c(O)c2c1)C(=O)C1=C(O)[C@]2(O)C(=O)C(C(N)=O)=C(O)[C@@H](N(C)C)[C@@H]2C[C@@H]1C3           8

----------
Test system: Klebsiella pneumoniae
Experiment: Antimicrobial activity against tetracycline-resistant Klebsiella pneumoniae isolate 153 harboring tetA gene by CLSI dilution method
Format: functional
Let's look at some compounds and their measured MIC.
Parameter: MIC (µg/mL)

                             smiles_notation  parameter  unit_text  relation_operator  test_value
 0  CN(C)CCOc1c2c(c(O)c3cc(CN4CCC4)ccc13)C(=O)C1=C(O)[C@]3(O)C(=O)C(C(N)=O)=C(O)[C@@H](N(C)C)[C@@H]3C[C@@H]1C2        MIC      µg/mL                  >          32
 1  COCCNCc1ccc2c(N(C)C)c3c(c(O)c2c1)C(=O)C1=C(O)[C@]2(O)C(=O)C(C(N)=O)=C(O)[C@@H](N(C)C)[C@@H]2C[C@@H]1C3        MIC      µg/mL                  =          32
 2  COc1c2c(c(O)c3cc(CN4CCC4)ccc13)C(=O)C1=C(O)[C@]3(O)C(=O)C(C(N)=O)=C(O)[C@@H](N(C)C)[C@@H]3C[C@@H]1C2        MIC      µg/mL                  =           8
 3  CN(C)c1ccc(O)c2c1C[C@H]1C[C@H]3[C@H](N(C)C)C(O)=C(C(N)=O)C(=O)[C@@]3(O)C(O)=C1C2=O        MIC      µg/mL                  =           8
 4  CN(C)[C@@H]1C(O)=C(C(N)=O)C(=O)[C@@]2(O)C(O)=C3C(=O)c4c(cc5ccc(CN6CC(C#N)C6)cc5c4O)C[C@H]3C[C@@H]12        MIC      µg/mL                  =          32
 5  CNCc1ccc2c(N(C)C)c3c(c(O)c2c1)C(=O)C1=C(O)[C@]2(O)C(=O)C(C(N)=O)=C(O)[C@@H](N(C)C)[C@@H]2C[C@@H]1C3        MIC      µg/mL                  =          32
 6  CN(C)c1c2c(c(O)c3cc(CN4CCCC4)ccc13)C(=O)C1=C(O)[C@]3(O)C(=O)C(C(N)=O)=C(O)[C@@H](N(C)C)[C@@H]3C[C@@H]1C2        MIC      µg/mL                  =          32
 7  CN(C)[C@@H]1C(O)=C(C(N)=O)C(=O)[C@@]2(O)C(O)=C3C(=O)c4c(cc5ccc(CN6CC(F)(F)C6)cc5c4O)C[C@H]3C[C@@H]12        MIC      µg/mL                  >          32
 8  CN(C)[C@@H]1C(O)=C(C(N)=O)C(=O)[C@@]2(O)C(O)=C3C(=O)c4c(c(Cl)c5ccc(F)cc5c4O)C[C@H]3C[C@@H]12        MIC      µg/mL                  >          32
 9  CN(C)[C@@H]1C(O)=C(C(N)=O)C(=O)[C@@]2(O)C(O)=C3C(=O)c4c(c(Cl)c5ccc(CN6CCC6)cc5c4O)C[C@H]3C[C@@H]12        MIC      µg/mL                  =           8
10  CN(C)Cc1cccc2c(O)c3c(cc12)C[C@H]1C[C@H]2[C@H](N(C)C)C(O)=C(C(N)=O)C(=O)[C@@]2(O)C(O)=C1C3=O        MIC      µg/mL                  >          32
11  COc1cccc2c(O)c3c(cc12)C[C@H]1C[C@H]2[C@H](N(C)C)C(O)=C(C(N)=O)C(=O)[C@@]2(O)C(O)=C1C3=O        MIC      µg/mL                  >          32
12  CN(Cc1ccc2cc3c(c(O)c2c1)C(=O)C1=C(O)[C@]2(O)C(=O)C(C(N)=O)=C(O)[C@@H](N(C)C)[C@@H]2C[C@@H]1C3)c1ccccc1        MIC      µg/mL                  >          32
13  CN(C)[C@@H]1C(O)=C(C(N)=O)C(=O)[C@@]2(O)C(O)=C3C(=O)c4c(c(F)c5ccc(CN6CCCC6)cc5c4O)C[C@H]3C[C@@H]12        MIC      µg/mL                  =           4
14  CN(C)c1ccc2c(O)c3c(cc2c1)C[C@H]1C[C@H]2[C@H](N(C)C)C(O)=C(C(N)=O)C(=O)[C@@]2(O)C(O)=C1C3=O        MIC      µg/mL                  >          32
15  CN(C)[C@@H]1C(O)=C(C(N)=O)C(=O)[C@@]2(O)C(O)=C3C(=O)c4c(cc5c(CNC6CC6)cccc5c4O)C[C@H]3C[C@@H]12        MIC      µg/mL                  >          32
16  CN(C)Cc1ccc2cc3c(c(O)c2c1)C(=O)C1=C(O)[C@]2(O)C(=O)C(C(N)=O)=C(O)[C@@H](N(C)C)[C@@H]2C[C@@H]1C3        MIC      µg/mL                  =           4
17  CN(C)c1c2c(c(O)c3cc(CN4CCC4)ccc13)C(=O)C1=C(O)[C@]3(O)C(=O)C(C(N)=O)=C(O)[C@@H](N(C)C)[C@@H]3C[C@@H]1C2        MIC      µg/mL                  =          16
18  CC(C)CNCc1ccc2cc3c(c(O)c2c1)C(=O)C1=C(O)[C@]2(O)C(=O)C(C(N)=O)=C(O)[C@@H](N(C)C)[C@@H]2C[C@@H]1C3        MIC      µg/mL                  =           4
19  CCCNCc1ccc2cc3c(c(O)c2c1)C(=O)C1=C(O)[C@]2(O)C(=O)C(C(N)=O)=C(O)[C@@H](N(C)C)[C@@H]2C[C@@H]1C3        MIC      µg/mL                  =           4
20  CNc1c2c(c(O)c3cc(CN4CCC4)ccc13)C(=O)C1=C(O)[C@]3(O)C(=O)C(C(N)=O)=C(O)[C@@H](N(C)C)[C@@H]3C[C@@H]1C2        MIC      µg/mL                  >          32
21  COc1c2c(c(O)c3cc(CNC4CC4)ccc13)C(=O)C1=C(O)[C@]3(O)C(=O)C(C(N)=O)=C(O)[C@@H](N(C)C)[C@@H]3C[C@@H]1C2        MIC      µg/mL                  =           8
22  COc1c2c(c(O)c3cc(F)ccc13)C(=O)C1=C(O)[C@]3(O)C(=O)C(C(N)=O)=C(O)[C@@H](N(C)C)[C@@H]3C[C@@H]1C2        MIC      µg/mL                  >          32
23  CN(C)Cc1ccc2c(F)c3c(c(O)c2c1)C(=O)C1=C(O)[C@]2(O)C(=O)C(C(N)=O)=C(O)[C@@H](N(C)C)[C@@H]2C[C@@H]1C3        MIC      µg/mL                  =           4
